Each item that follows carries a reported IC50.
System: P. falciparum field isolates
Assay: In vitro screening against Plasmodium falciparum field isolates (Giemsa smears, 48 h)
Assay type: cell-based
Conditions: Plasmodium falciparum, isolate E08; read-out: IC50±SD
Please give a number only; it is taken to be in µM.

>  <Molecule>
COC(=O)c1c(O)ccc(O)c1O [Compound 2, 2,3,6-trihydroxy methyl benzoate]

>  <Units label>
µM

>  <IC50>
13.3

$$$$

Quick check: IC50 on P. falciparum field isolates, item O=C(O)c1c(O)ccc(O)c1O [Compound 1, 2,3,6-trihydroxy benzoic acid] ? 9.92
